- EXPERIMENTAL TARGET: cynomolgus IL-36R on BaF/3 cells (cynomolgus, UniProt A0A2K5WSK9 20-558)
- Sequence (A0A2K5WSK9 entry or part of it): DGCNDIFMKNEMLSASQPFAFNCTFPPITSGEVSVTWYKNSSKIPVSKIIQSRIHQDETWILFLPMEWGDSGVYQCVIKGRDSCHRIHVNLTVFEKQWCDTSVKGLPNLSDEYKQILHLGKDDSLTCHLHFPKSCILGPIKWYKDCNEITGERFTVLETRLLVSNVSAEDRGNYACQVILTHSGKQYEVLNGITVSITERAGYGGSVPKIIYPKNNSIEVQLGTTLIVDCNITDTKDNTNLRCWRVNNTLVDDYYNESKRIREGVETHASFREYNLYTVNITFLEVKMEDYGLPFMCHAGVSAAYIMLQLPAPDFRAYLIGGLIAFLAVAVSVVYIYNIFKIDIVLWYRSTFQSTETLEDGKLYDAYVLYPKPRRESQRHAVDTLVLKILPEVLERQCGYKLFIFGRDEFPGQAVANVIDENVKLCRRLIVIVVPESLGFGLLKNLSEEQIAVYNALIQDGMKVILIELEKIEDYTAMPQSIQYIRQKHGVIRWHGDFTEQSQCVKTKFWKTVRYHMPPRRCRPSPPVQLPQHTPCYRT
- PROTOCOL TEXT: cell-based or functional assay
Recorded IC90, pNFκB, BaF/3 cynomolgus IL-36R cells, trun-IL-36a, one value per entry.
Report the figure in nM without appending any unit label.

Worked cases, IC90, pNFκB, BaF/3 cynomolgus IL-36R cells, trun-IL-36a given:
| BINDER | RECORDED MEASUREMENT |
| --- | --- |
| antibody 81B4 (antibody, V domains shown, Mouse monoclonal from hybridoma; also called 81B4E11; Mouse 81B4) VH: QVQLQQPGADFVRPGASMRLSCKASGYSFTSSWIHWVKQRPGQGLEWIGEINPGNVRTNYNENFRNKATLTVDKSSTTAYMQLRSLTSADSAVYYCTVVFYGEPYFPYWGQGTLVTVSA VL: QIVLTQSPAIMSASLGERVTMTCTASSSVSSSYFHWYQQKPGSSPKLWIYRTSNLASGVPGRFSGSGSGTSYSLTISSMEAEDAATYYCHQFHRSPLTFGAGTKLELK | 2.4 |
| antibody 73C5 (antibody, V domains shown, Mouse monoclonal from hybridoma; also called 73C5C10; Mouse 73C5) VH: QVQLKESGPGLVAPSQSLSITCTVSGFSLTNYAVHWVRQFPGKGLEWLGVIWSDGSTDFNAPFKSRLSINKDNSKSQVFFKMNSLQIDDTAIYYCARKGGYSGSWFAYWGQGTLVTVSA VL: DIVMTQSQKFLSTSVGVRVSVTCKASQDVGTNVLWYQQKIGQSPKPLIYSASYRHSGVPDRFTGSGSGTDFTLIISNVQSEDLAEYFCQQYSRYPLTFGPGTKLELK | 0.2 |

# input for lookup
Per the records, this binder ( antibody 73F6 (antibody, V domains shown, Mouse monoclonal from hybridoma; also called 73F6F8; Mouse 73F6) VH: QVQLKESGPGLVAPSQSLSITCTVSGFSLTNYAVHWVRQFPGKGLEWLGVIWSDGSTDYNAPFKSRLSINKDNSKSQVFFKMNSLQTDDTAIYYCARKGGYSGSWFAYWGQGTLVTVSA VL: DIVMTQSQKFLSTSVGVRVSVTCKASQDVGTNVLWYQQKIGQSPKALIYSASYRHSGVPDRFTGSGSGTDFTLIITNVQSEDLAEYFCQQYSRYPLTFGPGTKLELK ) has IC90, pNFκB, BaF/3 cynomolgus IL-36R cells, trun-IL-36a equal to 0.5
